Test system: U-251
method notes: NCI tumour cell line growth inhibition, 48 h
Active and inactive are the calls of the source. No stated cut-off is given here; in the data, active = GI50 up to about 1.1 µM and inactive = higher.
Labels: true (1) = active, false (0) = inactive

[[record]]
compound = "C=C(C)[C@H]1CC(=O)/C(C)=C\\CC/C(C)=C/CC[C@@]2(C)O[C@@H]2C1"
system_tested = "U-251"
qualitative_label = "false (0)"

[[record]]
compound = "O=C1N(c2ccccc2)C(=O)C2(SC=NN2Cc2ccccc2)N1c1ccccc1 (centres undefined)"
system_tested = "U-251"
qualitative_label = "false (0)"

[[record]]
compound = "Cc1cc(NS(=O)(=O)c2ccc(Nc3c4ccccc4nc4c(C(=O)Nc5ccc(S(N)(=O)=O)cc5)cccc34)cc2)no1"
system_tested = "U-251"
qualitative_label = "false (0)"

[[record]]
compound = "Cc1cccc(C(C)C)c1NC(=O)C(=O)CC(=O)c1c(C)[n+]([O-])c2ccccc2[n+]1[O-]"
system_tested = "U-251"
qualitative_label = "false (0)"

[[record]]
compound = "O=C(NCCCCl)c1c(O)c2ccccc2[nH]c1=O"
system_tested = "U-251"
qualitative_label = "false (0)"

[[record]]
compound = "NNC(=O)/C(=C/c1ccc(Cl)c(Cl)c1)NC(=O)c1ccccc1"
system_tested = "U-251"
qualitative_label = "false (0)"

[[record]]
compound = "O=C1c2cccc([N+](=O)[O-])c2C(=O)N1c1ncn[nH]1"
system_tested = "U-251"
qualitative_label = "false (0)"

[[record]]
compound = "Cc1ccccc1-n1c(CCl)nc2ccc(Br)cc2c1=O"
system_tested = "U-251"
qualitative_label = "false (0)"

[[record]]
compound = "O=C1/C(=C\\c2cccc(Oc3ccccc3)c2)S(=O)(=O)C(c2ccccc2)N1Cc1ccccc1 (centres undefined)"
system_tested = "U-251"
qualitative_label = "false (0)"

[[record]]
compound = "CO[C@H]1C[C@](C)(O)Cc2cc3c(c(O)c21)C(=O)c1c(O)cc2c(c1C3=O)O[C@@H]1O[C@@]2(C)[C@H](O)[C@@H](N(C)C)[C@@H]1O"
system_tested = "U-251"
qualitative_label = "true (1)"

[[record]]
compound = "C=C1[C@H](OC(=O)C(C)C)[C@@H](OC(C)=O)[C@@H](OC(C)=O)C(C)(C)[C@@H]2O[C@H]2[C@@H](C)C(=O)[C@@]2(OC(C)=O)C[C@@](C)(OC(C)=O)[C@H](OC(C)=O)[C@@H]2[C@H]1OC(C)=O"
system_tested = "U-251"
qualitative_label = "false (0)"

[[record]]
compound = "CCO/C=N/C1=C(C#N)SC2=N/C(=C\\c3ccccc3)C(=O)N21"
system_tested = "U-251"
qualitative_label = "false (0)"

[[record]]
compound = "O=C(c1ccccc1)N1CCc2c([nH]c3ccccc23)C1"
system_tested = "U-251"
qualitative_label = "false (0)"

[[record]]
compound = "Cc1ccc(S(=O)(=O)c2c3nc4ccccc4nc3n3c2[nH]c2ccccc23)cc1"
system_tested = "U-251"
qualitative_label = "false (0)"

[[record]]
compound = "Clc1ccc(Cc2nc3cc4ccccc4cc3[nH]2)cc1Cl"
system_tested = "U-251"
qualitative_label = "false (0)"

[[record]]
compound = "CC(Nc1ccc(Cl)c(Cl)c1)c1ccncc1 (centres undefined)"
system_tested = "U-251"
qualitative_label = "false (0)"

[[record]]
compound = "CN(C(=O)c1ccc(OCCCC(=O)O)c(Cl)c1Cl)C1CCCC1"
system_tested = "U-251"
qualitative_label = "false (0)"

[[record]]
compound = "C=C1OC(=O)[C@]2([C@@H](/C=C/C)C=CC(=O)[C@H]2O)[C@@H]1O"
system_tested = "U-251"
qualitative_label = "false (0)"

[[record]]
compound = "C[C@@H](c1ccccc1)N(CC#N)C1CCC[C@H]1O (some centres undefined)"
system_tested = "U-251"
qualitative_label = "false (0)"

